target: E. coli ATP synthase (purified F1 or membrane bound F1Fo) (Escherichia coli, UniProt P0ABA6+P0ABB0+P0ABB4); format: biochemical; conditions: purified F1 or membrane bound F1Fo
Sequence (P0ABA4 whole entry): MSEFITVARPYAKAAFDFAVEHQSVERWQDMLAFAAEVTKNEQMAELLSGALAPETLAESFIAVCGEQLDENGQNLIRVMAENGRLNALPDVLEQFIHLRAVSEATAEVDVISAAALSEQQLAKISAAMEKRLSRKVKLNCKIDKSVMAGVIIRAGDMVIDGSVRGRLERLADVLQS
Sequence (P0A6E6 2-139, further chain): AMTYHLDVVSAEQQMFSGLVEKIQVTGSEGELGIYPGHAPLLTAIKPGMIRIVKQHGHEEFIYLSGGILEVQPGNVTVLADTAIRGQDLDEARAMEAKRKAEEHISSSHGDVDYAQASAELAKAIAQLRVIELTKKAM
Sequence (P0ABA6 whole entry): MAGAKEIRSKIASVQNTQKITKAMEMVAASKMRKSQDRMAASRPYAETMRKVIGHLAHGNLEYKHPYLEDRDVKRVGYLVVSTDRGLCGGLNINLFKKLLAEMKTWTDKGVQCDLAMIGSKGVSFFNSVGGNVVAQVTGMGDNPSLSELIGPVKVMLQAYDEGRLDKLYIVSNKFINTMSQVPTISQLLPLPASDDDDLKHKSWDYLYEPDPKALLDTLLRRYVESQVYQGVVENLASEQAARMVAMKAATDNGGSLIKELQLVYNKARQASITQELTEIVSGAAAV
Sequence (P0ABB4 2-460): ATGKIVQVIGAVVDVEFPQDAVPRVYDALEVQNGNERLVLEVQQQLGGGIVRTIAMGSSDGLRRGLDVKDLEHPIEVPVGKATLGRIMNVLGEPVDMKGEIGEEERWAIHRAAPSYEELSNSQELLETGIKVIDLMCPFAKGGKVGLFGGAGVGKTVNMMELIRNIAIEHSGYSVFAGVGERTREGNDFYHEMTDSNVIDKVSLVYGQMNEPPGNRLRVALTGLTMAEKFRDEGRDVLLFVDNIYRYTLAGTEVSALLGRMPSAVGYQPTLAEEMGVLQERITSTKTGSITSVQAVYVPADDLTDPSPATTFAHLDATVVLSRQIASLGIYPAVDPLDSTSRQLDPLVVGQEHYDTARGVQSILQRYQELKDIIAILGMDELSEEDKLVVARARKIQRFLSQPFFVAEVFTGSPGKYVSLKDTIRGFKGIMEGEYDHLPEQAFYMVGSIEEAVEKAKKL
Sequence (P0ABB0 whole entry): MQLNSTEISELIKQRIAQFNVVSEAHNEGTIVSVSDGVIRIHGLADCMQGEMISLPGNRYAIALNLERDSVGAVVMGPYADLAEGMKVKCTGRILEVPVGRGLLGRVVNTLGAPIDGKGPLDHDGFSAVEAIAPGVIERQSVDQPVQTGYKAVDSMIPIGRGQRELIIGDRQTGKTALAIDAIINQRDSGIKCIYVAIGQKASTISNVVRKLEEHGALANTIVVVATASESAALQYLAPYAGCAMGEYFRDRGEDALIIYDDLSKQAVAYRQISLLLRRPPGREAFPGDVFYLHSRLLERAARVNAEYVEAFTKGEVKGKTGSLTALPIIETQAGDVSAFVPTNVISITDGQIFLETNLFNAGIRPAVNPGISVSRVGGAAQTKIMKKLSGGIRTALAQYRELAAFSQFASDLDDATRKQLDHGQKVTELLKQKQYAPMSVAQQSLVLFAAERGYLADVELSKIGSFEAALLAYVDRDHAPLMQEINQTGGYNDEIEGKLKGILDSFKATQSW
endpoint: Extent of inhibition of ATPase activity, in words

| compound | measured-result |
| --- | --- |
| COc1cc(C2Oc3cc([C@H]4Oc5cc(O)cc(O)c5C(=O)[C@@H]4O)ccc3OC2CO)ccc1O (stereo partly shown) | complete inhibition |
| O=c1c(-c2ccc(O)cc2)coc2cc(O)ccc12 | insignificant |
| COc1ccc(-c2cc(=O)c3c(O)cc(O[C@@H]4O[C@H](CO[C@@H]5O[C@@H](C)[C@H](O)[C@@H](O)[C@H]5O)[C@@H](O)[C@H](O)[C@H]4O)cc3o2)cc1O | partial inhibition |
| O=c1cc(-c2ccc(O)c(O)c2)oc2cc(O)cc(O)c12 | insignificant |
| COc1ccc([C@@H]2CC(=O)c3c(O)cc(O[C@@H]4O[C@H](CO[C@@H]5O[C@@H](C)[C@H](O)[C@@H](O)[C@H]5O)[C@@H](O)[C@H](O)[C@H]4O)cc3O2)cc1O | partial inhibition |
| O=c1cc(-c2ccccc2)oc2cc(O)c(O)c(O)c12 | complete inhibition |
| O=c1c(O)c(-c2ccc(O)cc2O)oc2cc(O)cc(O)c12 [Morin hydrate] | complete inhibition |

---

Reported Growth yield in limiting glucose (%) by item:
tested on: E. coli strain pBWU13.4/DK8; assay: Growth yield in limiting glucose medium in presence of bioflavonoid compounds; format: cell-based, Escherichia coli; conditions: OD595 after ~20 hours growth at 37 °C; control 100, null 45
endpoint: Growth yield in limiting glucose (%)

| compound | endpoint | measured-result |
| --- | --- | --- |
| COc1cc(C2Oc3cc([C@H]4Oc5cc(O)cc(O)c5C(=O)[C@@H]4O)ccc3OC2CO)ccc1O (some centres unmarked) | Growth yield in limiting glucose (%) | 47 |
| O=c1c(O)c(-c2ccccc2)oc2cc(O)cc(O)c12 | Growth yield in limiting glucose (%) | 93 |
| O=c1c(-c2ccc(O)cc2)coc2cc(O)ccc12 | Growth yield in limiting glucose (%) | 96 |
| O=c1c(-c2ccc(O)cc2)coc2cc(O)cc(O)c12 | Growth yield in limiting glucose (%) | 87 |
| COc1ccc([C@@H]2CC(=O)c3c(O)cc(O[C@@H]4O[C@H](CO[C@@H]5O[C@@H](C)[C@H](O)[C@@H](O)[C@H]5O)[C@@H](O)[C@H](O)[C@H]4O)cc3O2)cc1O | Growth yield in limiting glucose (%) | 76 |
